IC50 reference
# Method Description: Cytotoxicity against human 1205 Lu cells after 72 hrs by MTS assay
# Type: functional, cell-based
Could you give me the number in µM? Just the number is fine.

Structure Notation | Unit String | Value Measured
O=C1c2cccc3cccc(c23)C(=O)N1CCCCCCN=C=S | µM | 5.25

--- query ---
input: // returns reported IC50 for input "O=C1c2cccc3cc([N+](=O)[O-])cc(c23)C(=O)N1CCN=C=S"
output: 3.91

----------
# System: UACC-903
# Method Description: Cytotoxicity against human UACC-903 cells after 72 hrs by MTS assay
# Format: functional, cell-based
# Test Conditions: UACC-903, 72 h
The entries below are paired with their reported IC50.
Write it as a number; the unit µM goes unstated.

Would you please look over these solved cases?
Structure Notation | Observation Type | Value Measured
O=C1c2cccc3cccc(c23)C(=O)N1CCCCN=C=S | IC50 | 5.17
O=C1c2cccc3cccc(c23)C(=O)N1CCN=C=S | IC50 | 8.04
O=C1c2cccc3cc([N+](=O)[O-])cc(c23)C(=O)N1CCN=C=S | IC50 | 5.5
O=C1c2cccc3cccc(c23)C(=O)N1CCCCCCN=C=S | IC50 | 7.6

input: Which IC50 reading was recorded for the compound "N=C(N)SCCN1C(=O)c2cccc3cccc(c23)C1=O" ?
output: 6.85

input: // next record "N=C(N)SCCN1C(=O)c2cccc3cc([N+](=O)[O-])cc(c23)C1=O"
output: 6.95
